System: IL-4 secretion by Th2 cells
test_details: IL-4 secretion by Th2 cells derived from BALB/c mice (ELISA)
Type: cell-based
condition_summary: Mus musculus, 72 h; Th2 cells from BALB/c mice, 3 days; read-out: IC50, inhibition of IL-4 secretion
test_readout: pIC50
On this scale, pIC50 is minus log10 of a concentration expressed in M (mol/L).

Considering CC(C)C1NC(=O)C(Cc2ccc(O)cc2)NC1=O (stereo not shown) [cyclo Tyr-Val, cyclo tyrosine-valine] , its pIC50 with IL-4 secretion by Th2 cells was recorded as 7.58

Provenance of the data: patent US20190183960A1
